Just for reference, paper PMC4414246 is where these values come from.

Target: dK50dM51 E19A (UniProt P09012 10-89, E19A;del50-51)
Experiment: fluorescence polarization
readout name: Kd (µM)
# value in µM; strip the unit string

Query string: I would be grateful if you could share the reported Kd for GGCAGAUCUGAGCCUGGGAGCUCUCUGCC (structured_RNA) [TAR RNA] .
Result string: 10.2
